# key: entry, value: pIC50
Molecular target: HIV RT recovered from patient plasma (Human immunodeficiency virus type 1, UniProt P03366)
Assay: Susceptibility to AZT-TP and d4T-TP using plasma derived RTs (Chain-termination reaction mixture)
Details: IC50, plasma RT of patient code 48; 5 fg/well
In textbook form, pIC50 equals minus log to base ten of the concentration in mol/L.

- Molecule: "Cc1cn(C2CC(N=[N+]=[N-])C(COP(=O)(O)OP(=O)(O)OP(=O)(O)O)O2)c(=O)[nH]c1=O (centres unmarked) [AZT-TP]"
  pIC50: 6.33

Please find the next molecule below.
Measured pIC50, Cc1cn([C@H]2C=C[C@@H](COP(=O)(O)OP(=O)(O)OP(=O)(O)O)O2)c(=O)[nH]c1=O [d4T-TP] : 7.07

Just for reference, patent US7875422B2 is where these values come from.
